Test system: guinea-pig urinary bladder (GPB) cells
assay details: Membrane hyperpolarization (MHP) assay, DiBAC(4)3 dye, FLIPR
Assay type: cell-based
details: Cavia porcellus; membrane hyperpolarization in GPB cells; concentration eliciting 50% of the maximal response of the test sample
pEC50: −log10 of the molar value.
observation type: pEC50

Reference set (2 entries):
>  <compound>
Cn1[nH]c(=O)c2c1NC1=C(C(=O)OC1)C2c1ccc(F)c(Br)c1 (centres unmarked) [Example 32]

>  <pEC50>
6.28

$$$$
>  <compound>
Cc1ccc(C2C3=C(CCC3=O)Nc3c2c(=O)[nH]n3C)cc1Br (centres unmarked) [Example 8]

>  <pEC50>
6.32

$$$$

P. Cn1[nH]c(=O)c2c1NC1=C(C(=O)CC1)C2c1ccc(Cl)c([N+](=O)[O-])c1 (centres unmarked) [Example 10]
Q. Cn1[nH]c(=O)c2c1NC1=C(C(=O)CC1)C2c1csc([N+](=O)[O-])c1 (centres unmarked) [Example 15]
Could you check which of P and Q has a smaller value for pEC50? API: response body contains the label of the selected item.
Q
(Q: 5.11, P: 5.63)

meta.source: patent US6780872B2
